Where these numbers come from: patent US20140051645A1

# assayed.target: T1, human CTLA-4 on transfected CHO-K1 cells (human, UniProt P16410 36-223)
# T1 construct: whole, on cells; also called human CTLA4-transfected CHO cells; CTLA-4 expressing CHO cells
# T1 sequence (looked up): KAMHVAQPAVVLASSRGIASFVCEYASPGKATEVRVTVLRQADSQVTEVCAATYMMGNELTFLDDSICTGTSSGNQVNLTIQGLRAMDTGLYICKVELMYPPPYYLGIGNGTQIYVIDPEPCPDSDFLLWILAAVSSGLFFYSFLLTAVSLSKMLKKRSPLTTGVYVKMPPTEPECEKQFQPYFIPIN
# test.method.notes: competition FACS on human CTLA4-transfected CHO-K1 cells; competitor biotinylated human B7.1 at 10 nM

binder	EC50, nM
hNGALM2 (designed binder) QDSTSDLIPAPPLSKVPLQQNFQDNQFHGKWYVVGLAGNRLLRDDQHPMDMYATIYELKGDKSYNVTSVISSHKKCLYPIATFVPGSQPGEFTLGNIKSYGDKWSYLVRVVSTDYNQYAVVFFKHADTNYESFSITIYGRTKELASELKENFIRFSKSLGLPENHIVFPVPIDQCIDGSAWSHPQFEK	6
hNGALM7 (designed binder) QDSTSDLIPAPPLSKVPLQQNFQDNQFHGKWYVVGLAGNRILRLDQHPMPMYATIYELKGDKSYNVTSVISSHKKCLYPIATFVPGSQPGEFTLGNIRSYGDKTSYLVRVVSTDYNQYAVVFFKHADTNYESFSITIYGRTKELASELKENFIRFSKSLGLPENHIVFPVPIDQCIDGSAWSHPQFEK	11
hNGALM5 (designed binder) QDSTSDLIPAPPLSKVPLQQNFQDNQFHGKWYVVGLAGNRILRSDQHPMRMYATIYELKGDKSYNVTSVISSHKKCLYTIATFVPGSQPGEFTLGNIKSYGDKWSYLVRVVSTDYNQYAVVFFKHADTNYESFSITIYGRTKELASELKENFIRFSKSLGLPENHIVFPVPIDQCIDGSAWSHPQFEK	9
